Assignment: determine reported RP-LC retention time for the given compounds.
# experiment: gradient 5% acetonitrile 3 min, to 50% in 2 min, to 85% in 15 min, held 3 min, 100 µL/min
# condition.notes: column: Zorbax Extend-C18 2.1 x 50 mm; eluents: water / acetonitrile, 0.1% formic acid
Your answer should be a plain number; it is taken to be in s.

What does the data say about its RP-LC retention time? Entry: "CC(C)n1cnc(S(=O)(=O)N2CCC(C(=O)N3CCN(C(=O)c4ccco4)CC3)CC2)c1" 636

Now this one: "CCN(CC)c1ccc(Nc2nc(-c3ccc(F)c(C)c3)cs2)cc1" 834

Now this one: "O=C(Cc1cccs1)N1CCN(c2nnc3ccc(C(F)(F)F)cn23)CC1" 666

Now this one: CC(=O)N1c2ccc(S(=O)(=O)N3CCCCC3)cc2CC1C(=O)NC1CCCCC1 (centres undefined) 905
